Target: T1, PUF4 RNA-binding domain (Saccharomyces cerevisiae, UniProt P25339 537-888)
T1 sequence: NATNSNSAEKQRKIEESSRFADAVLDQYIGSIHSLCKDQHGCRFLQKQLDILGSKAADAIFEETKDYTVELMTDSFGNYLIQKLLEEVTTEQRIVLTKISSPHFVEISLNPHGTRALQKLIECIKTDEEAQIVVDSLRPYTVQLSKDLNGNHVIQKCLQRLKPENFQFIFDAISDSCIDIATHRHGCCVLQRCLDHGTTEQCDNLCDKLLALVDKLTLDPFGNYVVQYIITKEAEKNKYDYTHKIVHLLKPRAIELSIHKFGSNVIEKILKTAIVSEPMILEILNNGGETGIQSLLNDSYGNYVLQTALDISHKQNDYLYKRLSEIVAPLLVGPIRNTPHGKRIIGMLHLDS
Assay: Mg; RNA-MaP; 20 mM Na-HEPES pH 7.4, 30 mM KOAc, 0.75 mM MgCl2, 0.1% Tween-20, 5% glycerol, 0.1 mg/mL BSA, 2 mM DTT; 25 C; 0.0125-409.6 nM protein
Conditions: tags: N-His6-TEV cleaved; C-SNAP kept, Cy3B-labelled; label: tethered on chip by stalled RNA polymerase
ASSAY_READOUT: Kd (nM)
Form entry: value (nM) — number only.

Take a look at these entries with their results.
BINDER | Kd [nM]
UCUCUUUGCUUUAUUAUUAUCUCUU (ssRNA) [Ie_S1_P5E.1_K5.1_C5.1_H5.1_[+2CTT]_A5.1_F5.1_T5.1] | 1920
UCUCUUUGUAACUAUUCUCUU (ssRNA) [Ic_S1_P4E.1_K4.1_C4.1_H4.1_A4.1_[T5A]_[A6C]_F4.1_[T8A]_[A9T]_T4.1] | 93.1
UCUCUUUGUAUUAUUCUAUCUCUU (ssRNA) [Ie_S1_P5E.1_K5.1_C5.1_H5.1_A5.1_F5.1_[+8TC]_T5.1] | 19.9

For Ie_S4_P4E.1_K4.1_C4.1_H4.1_[+2C]_A4.1_F4.1_T4.1 (ssRNA) RNA: UUUGACAACUGAUCGUUCUUUCUUGCUAUAUUAUUCUUUCUCGAUCAGUUGUCUUU the binder record lists Kd as 148

So, UCUCUUUGUUUAUUGUCUCUU (ssRNA) [Ib_S1_P4E.1_K4.1_C4.1_H4.1_[A4T]_A4.1_F4.1_[A9G]_T4.1] ? Its Kd was 163

The recorded Kd for entry UCUCUUCGUGUAUAUAGUUCUCUU (ssRNA) [Id_ii_S1_P3E.2_K3.1_C3.2_[T-1G]_H3.1_A3.1_F3.1_T3.2_[T9G]_[A10T]] equals 3.77

Measured Kd, Id_ii_S4_P3E.2_K3.1_C3.2_[C-2T]_[T-1C]_H3.1_A3.1_F3.1_T3.2_[T9G]_[A10T] (ssRNA) RNA: UUUGACAACUGAUCGUUCUUUCUUCUGUAUAUAGUUUCUUUCUCGAUCAGUUGUCUUU : 3.63

Lab note: measured Kd of UCUCUUCCUAUAUAUUACGUCUCUU (ssRNA) [Id_ii_S1_P4E.3_K4.2_C4.2_[T-1C]_H4.2_A4.1_F4.1_T4.2_[G10C]_[T11G]] was 32.8

// Kd lookup, binder = UCUCUUUGUAAAAUAUCUCUU (ssRNA) [Ic_S1_P4E.1_K4.1_C4.1_H4.1_A4.1_[T5A]_[T7A]_F4.1_T4.1] , result: 3.38

Recorded Kd (binder Id_ii_S2_P4E.3_K4.2_C4.2_[C-2G]_H4.2_A4.1_F4.1_T4.2_[G10T]_[T11A] (ssRNA) RNA: UUUGAUUAAUAUGAUAUCGUUCUUUCUGUUAUAUAUUAUAUUCUUUCUCGAUAUCAUAUUAAUCUUU ): 53.5

The values you see were collected from paper PMC9352680.
